# Study System: FOXO1 FKH wt (UniProt Q12778 151-265)
# Experiment: EMSA
Property Name: Kd

- dsIRE (dsDNA) DNA 1: TAAGCTAGTGGTTTGTTTTGCTTGCTAGCAAT DNA 2: ATTGCTAGCAAGCAAAACAAACCACTAGCTTA: 200 nM
